# assay: differential killing of epithelial or mesenchymal cells, primary screen, imaging, PC-3E GFP, TEM4-18 mCherry, co-culture (AID 1345086);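 further: cells exposed to compound for 72 h before imaging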
# condition: imaging cell counts, measured here: epithelial PC-3E GFP cell survival, at 1 µM
result_type: normalised cell number
Answers are plain numbers.

>  <compound>
CCCCCC1C(=O)CCC1CC(=O)O (stereo unspecified)

>  <normalised cell number>
0.07

$$$$
>  <compound>
CC(C)[C@@H]1CC[C@@H](C)CC1=O

>  <normalised cell number>
1.16

$$$$
>  <compound>
O=c1cc(-c2cc(O)c(O)c(O)c2)oc2cc(O)cc(O)c12

>  <normalised cell number>
0.99

$$$$
>  <compound>
O=C(O)CCCN1C(=O)c2cccc3cccc(c23)C1=O

>  <normalised cell number>
1.29

$$$$
>  <compound>
Cc1ncc(CSSCc2cnc(C)c(O)c2CO)c(CO)c1O

>  <normalised cell number>
1.03

$$$$

Moving on to another compound below.
// normalised cell number lookup, compound = `Oc1cc(O)c2c(c1)O[C@H](c1cc(O)c(O)c(O)c1)[C@H](O)C2` , result: 0.76

====

# tested_on: 6-phosphogluconate dehydrogenase, decarboxylating (Homo sapiens)
# assay: 6PGD enzyme inhibitors, primary screen, biochemical, human, recombinant enzyme, NADPH absorbance (AID 1159550)
# condition: recombinant 6PGD, NADPH absorbance 341 nm; at 10 µM; stronger effect = higher value
result_type: inhibition (%)
Numbers only, in %.

>  <compound>
COC(=O)C[C@H]1C(C)(C)C(=O)[C@@H]2CC3=C4CC(=O)O[C@@H](c5ccoc5)[C@]4(C)CC[C@@H]3C1(C)C2=O

>  <result_type>
inhibition

>  <readout_units>
%

>  <experimental_result>
-2.15

$$$$
>  <compound>
CC12CCCC(O)(C1)C1CC(C)(C)C1CC2 (stereo not drawn)

>  <result_type>
inhibition

>  <readout_units>
%

>  <experimental_result>
-1.62

$$$$
>  <compound>
O=C(O)c1cc(O)c2c(c1)[C@H]([C@H]1c3cc(C(=O)O)cc(O)c3C(=O)c3c(O[C@@H]4O[C@H](CO)[C@@H](O)[C@H](O)[C@H]4O)cccc31)c1cccc(O[C@@H]3O[C@H](CO)[C@@H](O)[C@H](O)[C@H]3O)c1C2=O

>  <result_type>
inhibition

>  <readout_units>
%

>  <experimental_result>
6.02

$$$$
>  <compound>
O=C(O)c1cc(O)ccc1O

>  <result_type>
inhibition

>  <readout_units>
%

>  <experimental_result>
-15.2

$$$$
>  <compound>
COc1c2ccoc2cc2oc(=O)ccc12

>  <result_type>
inhibition

>  <readout_units>
%

>  <experimental_result>
-3.29

$$$$

Could you tell me inhibition for each of these compounds? They are listed below.
1. C=C1C(=O)OC2CC1C(OC(C)=O)C/C(C)=C/CC/C(C)=C\CCC2(C)O (stereo not drawn)
2. C[C@@H]1C[C@H]2[C@@H]3C[C@H](F)C4=CC(=O)C=C[C@]4(C)[C@@]3(F)[C@@H](O)C[C@]2(C)[C@@]1(O)C(=O)COC(=O)C(C)(C)C
3. CC(=O)O[C@]1(C)CC[C@@]23C[C@@H]1C(C)(C)[C@@H]2CC[C@H]3C
4. CC(=O)O[C@@H]1C[C@H]2C(C)(C)C(=O)[C@@H]3O[C@@H]3[C@]2(C)[C@H]2CC[C@@]3(C)[C@H](c4ccoc4)OC(=O)[C@H]4O[C@]43[C@@]21C
5. COC(=O)CC[C@@H](C)[C@H]1CC[C@H]2[C@@H]3[C@H](O)C[C@@H]4C[C@H](O)CC[C@]4(C)[C@H]3C[C@H](O)[C@]12C

Solution:
[10.9, 8.08, 13.3, -3.37, -4.15]

Could you tell me inhibition for each of these compounds? They are listed below.
1. O=C1CC(c2ccccc2)Oc2ccccc21 (stereo not drawn)
2. CC(=O)c1ccc(O)c(CC=C(C)C)c1
3. COC1=CC(=O)C(O)=C/C1=C/C=C/c1ccccc1
4. COC(=O)C(O)[C@H]1C(C)(C)[C@@H](OC(C)=O)[C@@H]2CC3=C4CC(=O)O[C@@H](c5ccoc5)[C@]4(C)CCC3[C@@]1(C)C2=O (stereo partly drawn)
5. COc1c(-c2ccccc2)oc2c(OC)cccc2c1=O
6. CC(C)[N+]1(C)C2CCC1CC(OC(=O)C(CO)c1ccccc1)C2 (stereo not drawn)

Solution:
1. 1.48
2. 18.5
3. 4.47
4. 12.8
5. -9.55
6. 11.9

Could you tell me inhibition for each of these compounds? They are listed below.
1. CC1=C2C(O)C(=O)OC3CC4C(C)(C)C(=O)C=C[C@]4(C)C(CC1)[C@]23C (stereo partly drawn)
2. C=C1[C@@H]([C@@]2(C)C=CC(=O)C(C)(C)[C@@H]2CC(=O)OC)CC[C@@]2(C)C(c3ccoc3)OC(=O)[C@H]3O[C@]132 (stereo partly drawn)

Solution:
1. -6.52
2. 0.696

====

# assay: CellTiter-Glo luminescent readout of SW480 viability loss, NPC library primary (AID 1117343)
# condition: CellTiter-Glo luminescence; at 20 µM (top of the series) unless noted
result_type: viability decrease (inhibition) (%)
One number for each entry, in %.

>  <chem_smiles>
CCOc1ccccc1OCCN[C@H](C)Cc1ccc(OC)c(S(N)(=O)=O)c1

>  <readout_units>
%

>  <experimental_result>
6.6

$$$$
>  <chem_smiles>
Cc1cccc(C)c1NC(=O)c1ccccc1C(=O)O

>  <readout_units>
%

>  <experimental_result>
49.6

$$$$
>  <chem_smiles>
c1cnc2cc3c(cc2n1)C1CNCC3C1

>  <readout_units>
%

>  <experimental_result>
9.4

$$$$

Could you tell me viability decrease (inhibition) for each of these compounds? They are listed below.
1. CC(=O)[C@H]1CC[C@H]2[C@@H]3C=CC4=CC(=O)CC[C@@]4(C)[C@@H]3CC[C@]12C
2. CC(C)n1c(/C=C/[C@@H](O)C[C@@H](O)CC(=O)O)c(-c2ccc(F)cc2)c2ccccc21

Solution:
64.2
111

Could you tell me viability decrease (inhibition) for each of these compounds? They are listed below.
1. NCCNC(=O)c1ccc(Cl)cn1
2. Cc1cc2c(cc1CC(=O)c1sccc1S(=O)(=O)Nc1onc(C)c1Cl)OCO2

Solution:
1. 16.3
2. 6.8

Could you tell me viability decrease (inhibition) for each of these compounds? They are listed below.
1. O=S(=O)(c1cccc2cnccc12)N1CCCNCC1
2. O=C(O)CP(=O)(O)O

Solution:
1: -4.3; 2: 10.9

Could you tell me viability decrease (inhibition) for each of these compounds? They are listed below.
1. CNC(=O)c1c(I)c(NC(C)=O)c(I)c(C(=O)O)c1I
2. C[C@]12CCC(=O)C=C1CC[C@H]1[C@@H]3CC[C@](O)(C(=O)CO)[C@@]3(C)C[C@H](O)[C@@]12F

Solution:
[0.4, -20]

====

# assay: HDN33 neuroblastoma growth inhibition, cell-based, chromothripsis tumors, cisplatin or BGB combos (AID 1671450);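 further: cells exposed to compound for four days; 0% = vehicle DMSO and 100% = cell killing by high DMSO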
# condition: HDN33 neuroblastoma cells, at 0.5 µM, stronger effect = higher value
result_type: inhibition (%)
One number for each entry, in %.

Observe how each entry below is paired with its result.
>  <molecule>
C[C@@H](CN1CC(=O)NC(=O)C1)N1CC(=O)NC(=O)C1

>  <inhibition, %>
-24

$$$$
>  <molecule>
CN1CCN(c2c(F)cc3c(=O)c(C(=O)O)cn4c3c2OCN4C)CC1

>  <inhibition, %>
-7.25

$$$$
>  <molecule>
CNC1CCCN(c2c(F)cc3c(=O)c(C(=O)O)cn(C4CC4)c3c2OC)C1 (stereo not given)

>  <inhibition, %>
-41

$$$$
>  <molecule>
CN(N=O)C(=O)NC1C(O)OC(CO)C(O)C1O (stereo not given)

>  <inhibition, %>
-18.9

$$$$
>  <molecule>
O=c1[nH]c(=O)n([C@H]2C[C@H](O)[C@@H](CO)O2)cc1C(F)(F)F

>  <inhibition, %>
-26.4

$$$$
>  <molecule>
N=c1ccn2c(n1)O[C@H]1[C@H](O)[C@@H](CO)O[C@H]12

>  <inhibition, %>
76.6

$$$$
>  <molecule>
O=c1[nH]c(=O)n([C@H]2C[C@H](O)[C@@H](CO)O2)cc1Br

>  <inhibition, %>
21.5

$$$$
>  <molecule>
COC1C(OC(N)=O)C(O)C(Oc2ccc3c(O)c(NC(=O)c4ccc(O)c(CC=C(C)C)c4)c(=O)oc3c2C)OC1(C)C (stereo not given)

>  <inhibition, %>
-8.11

$$$$

Could you tell me inhibition for each of these molecules? They are listed below.
1. O=C(CCCCCCC(=O)Nc1ccccc1)NO
2. COc1c2ccoc2cc2oc(=O)ccc12

Solution:
1. 20.4
2. -1.51

Origin of the recorded values: PubChem BioAssay
